All figures here come from patent US10710986B2.

Parameter: IC50. Scope: all listed entries.
# assay.target: PD-1/PD-L1 (Homo sapiens (Human), UniProt Q9NZQ7)
# Sequence (Q9NZQ7 19-238): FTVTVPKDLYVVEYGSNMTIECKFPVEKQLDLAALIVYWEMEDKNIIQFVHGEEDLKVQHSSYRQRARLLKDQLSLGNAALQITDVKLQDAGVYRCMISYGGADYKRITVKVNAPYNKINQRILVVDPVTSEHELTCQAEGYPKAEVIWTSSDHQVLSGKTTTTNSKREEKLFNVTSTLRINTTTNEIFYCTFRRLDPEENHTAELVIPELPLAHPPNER
# method.description: PD-1/PD-L1 biochemical protein-protein interaction assay (ALPHA)
# condition.details: 0.3 nM His tagged PD-L1, 2.5 nM biotinylated Fc-PD-1, 60 minutes at 25° C., read-out: IC50 PD-L1-PD1

>>> print(df.to_string())
                                   compound    result
0  COC[C@@H]1CCN1Cc1ncc(-c2cccc(-c3cccc(-c4cnc(CNC[C@@H]5CCC(=O)N5)c(OC)n4)c3Cl)c2Cl)nc1OC  0.216 nM
1  COc1nc(-c2cccc(-c3cccc(-c4cnc(CNC[C@@H]5CCC(=O)N5)c(OC)n4)c3Cl)c2Cl)cnc1CNCCS(=O)(=O)O   3.42 nM
2  COc1nc(-c2cccc(-c3cccc(-c4cnc(CNC[C@@H]5CCS(=O)(=O)N5)c(OC)n4)c3Cl)c2Cl)cnc1CNC[C@@H]1CCS(=O)(=O)N1   0.59 nM
3  COC(=O)NC1CCN(Cc2ncc(-c3cccc(-c4cccc(-c5cnc(CNC[C@@H]6CCC(=O)N6)c(OC)n5)c4Cl)c3Cl)nc2OC)C1 (stereo partly drawn)   0.12 nM
4  COc1nc(-c2cccc(-c3cccc(-c4cnc(CN5CC[C@H](CO)C5)c(OC)n4)c3Cl)c2Cl)cnc1CNC[C@@H]1CCC(=O)N1  0.074 nM
5  CCc1nc(-c2cccc(-c3cccc(-c4cnc(CN5CC6(CCC(=O)N6)C5)c(CC)n4)c3Cl)c2Cl)cnc1CN1CC2(CCC(=O)N2)C1  0.189 nM

[ask] For COc1nc(-c2cccc(-c3cccc(-c4cnc(CN[C@H](CO)C(C)C)c(OC)n4)c3Cl)c2Cl)cnc1CNC[C@@H]1CCC(=O)N1 , what is its reported IC50?
[reply] 0.426 nM

[ask] For COc1nc(-c2cccc(-c3cccc(-c4cnc(CNCC5(O)CC5)c(OC)n4)c3Cl)c2Cl)cnc1CNC[C@@H]1CCC(=O)N1 then?
[reply] 0.273 nM

[ask] For CSc1nc(-c2cccc(-c3cccc(-c4cnc(CN5CC6(CCC(=O)N6)C5)c(SC)n4)c3Cl)c2Cl)cnc1CN1CC2(CCC(=O)N2)C1 then?
[reply] 0.156 nM
